- test.target: BRD4-D2 (Homo sapiens)
- Construct: the second bromodomain of BRD4 (residues 333-460); host or cells: E. coli BL21 Star (DE3)
- procedure.summary: Fluorescence anisotropy competition with Fl-JQ1
- Assay type: binding
// IC50 lookup, one value per entry
Please state the figure in µM; there is no need to write the unit.

- compound: "Cc1cc(Oc2cccc(-c3c(C)nnn3C3CCNCC3)n2)cc(C(C)C)c1 [drawing 187]"
  measured.endpoint: "IC50"
  observed: 4.76
- compound: "CCC(C)c1cc(C)cc(Oc2cccc(-c3c(C)nnn3C3CCNCC3)n2)c1 (stereo not drawn) [drawing 188]"
  measured.endpoint: "IC50"
  observed: 7.35
- compound: "Cc1cc(Oc2cccc(-c3c(C)nnn3C3CCNCC3)n2)cc(C2CCCC2)c1 [drawing 189]"
  measured.endpoint: "IC50"
  observed: 7.35
- compound: "Cc1cc(C)cc(Oc2nccc(-c3c(C)nnn3C3CCNCC3)n2)c1"
  measured.endpoint: "IC50"
  observed: 5.87
- compound: "Cc1nnn(C2CCNCC2)c1-c1cccc(Oc2cc(C(F)(F)F)cc(C(F)(F)F)c2)n1 [drawing 199]"
  measured.endpoint: "IC50"
  observed: 45.6

Here is the next item to consider.
// field: IC50; key: CCCCc1cc(CCCC)cc(Oc2cccc(-c3c(C)nnn3C3CCNCC3)n2)c1 [drawing 195] ; value = 27.7
